experimental.protocol: NCI Yeast Anticancer Drug Screen. Data for the rad50 strain (AID 155);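 note: 0% = growth of vehicle-only cultures of the same strain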
experimental.parameters: S. cerevisiae rad50 strain growth inhibition; at 50.0 µM; hits give high values
The panel holds about 79,000 compounds, 15% with a hit somewhere; the sample as a whole holds those more often.
Returns Satisfied if the recorded growth inhibition is greater than or equal to 70%, and Not satisfied otherwise.

Decide: is the reported value of growth inhibition for CCCCCCCCCCC(O)C1CCC(C(O)CCC(O)C2CCC(CCCCCCC[C@H](O)CC3=C[C@@H](C)OC3=O)O2)O1 (stereo partly specified) equal to or greater than 70%?
Not satisfied

Textbook exercise: given the entry NNc1ncc[nH]1 , state whether its growth inhibition is greater than or equal to 70%.
Not satisfied

Does CC(=O)Nc1nc(CCl)cs1 have a reported growth inhibition of at least 70%?
Not satisfied

Say whether N#CC(C#N)=Cc1ccc(Cl)o1 shows growth inhibition of 70% or more.
Not satisfied

Item O=C(CF)[O][Sb]([O]C(=O)CF)([c]1ccccc1)([c]1ccccc1)[c]1ccccc1 with growth inhibition of 70% or above?
Not satisfied

Hi, just wondering whether O=P1(CCBr)NCCCO1 (stereo unspecified) shows growth inhibition of 70% or higher.
Not satisfied

# bool: growth inhibition of CN(C)c1ccc(/C=C/c2cc3scc(-c4ccccc4)[n+]3c3ccccc23)cc1 >= 70%
Satisfied

Determine whether measured growth inhibition meets or exceeds 70% for O=C(O)CN1CCN(CC(=O)O)CC(=O)[O][Hg][O]C(=O)C1
Satisfied

Please indicate if the recorded growth inhibition for N#CCCCl meets or exceeds 70%.
Not satisfied

Record CC(=O)NC1C(O[C@H]2CC[C@@]3(C)C(CC[C@]4(C)C3CC=C3C5CC(C)(C)CC[C@]5(C(=O)O)CCC34C)C2(C)C)OC(CO)C(O)C1O (stereo partly specified) ; criterion: growth inhibition no lower than 70%. Met?
Satisfied

###

experimental.protocol: NCI Yeast Anticancer Drug Screen. Data for the mec2-1 strain (AID 157)
experimental.parameters: S. cerevisiae mec2-1 strain, at 50.0 µM, hits give high values
Compounds without any hit were thinned out: in the full panel of roughly 79,000, 15% have a hit.
measurement.type: growth inhibition (%)
Give the quantity in %, number only.

Input CCC1(CC)C(=O)N(C)P(=O)(Oc2ccccc2)N(C)C1=O . Output growth inhibition: 15.4

// field: growth inhibition; key: O=C(O)CCCC1CCCCC1.[Ni] ; value = 14.8

Lookup result for COc1ccc(CCNCc2ccc3ccccc3n2)cc1OC ; measured growth inhibition: -10.5

Lab book: growth inhibition of CCC[As](=O)(O)CC(C)C noted as -2.8

Sample Cc1nc2ccc(Br)cc2c(=O)n1-c1ccc(N)cc1 ; growth inhibition observed: -2.4

get_value(item= NC(=NCc1ccccc1)N[N+](=O)[O-] , readout=growth inhibition) returns 3.65

Lab note: measured growth inhibition of CCOC(=O)Cc1ccccc1 was -5.85

The molecule listed as COC(=O)C1ON(c2ccccc2)C2c3ccccc3-c3ccccc3C12 (stereo not drawn) shows growth inhibition equal to 18.9

In plain terms, CC(c1ccccc1)N1O[C@]12CC[C@@]1(C)C(CCCC13OCCO3)C2 (stereo partly drawn) has a documented growth inhibition of 94

Reported growth inhibition ( C[C@]12CCC(O)CC1=CC[C@@H]1[C@@H]2CC[C@]2(C)C(=O)[C@H](n3ccnc3)C[C@@H]12 (stereo partly drawn) ) = 58

COC1=CC(=O)OC(CCc2ccccc2)C1 (stereo not drawn) yielded growth inhibition of -5.9

GET /value?item= OC(c1ccccc1)C1CCCCN1 (stereo not drawn) &field=growth inhibition returns -7.2

Noted for O=C(O)C1C2C=Cc3ccccc3C21 (stereo not drawn) : its growth inhibition reads 2.9

// growth inhibition value for CC(=O)O[C@H]1CC[C@@]2(C)C(=CC[C@@H]3[C@@H]2CC[C@]2(C)C(=O)[C@@H](CN4CC4)C[C@@H]32)C1 : 54

According to the records, this molecule O=C(CCl)Oc1ccccc1Cl displays growth inhibition of -5.4

Input CC[CH2][Sn]([CH2]CC)[CH2]CC.CC[CH2][Sn]([CH2]CC)[CH2]CC . Output growth inhibition: 99.5

Data point: CCCCCOP(=O)(OCCCCC)C(=O)Nc1ccc([N+](=O)[O-])cc1 ; growth inhibition = 4.85

Sample C[C@]12CC[C@H](O)C[C@H]1CC[C@@H]1[C@@H]2CC[C@]2(C)[C@@H](C3=CC(=O)OC3)CC[C@]12O ; growth inhibition observed: 12.4

The molecule listed as COc1cc2c(c3c[n+](C)c4c5cc6c(cc5ccc4c13)OCO6)OCO2 shows growth inhibition equal to 94.8

Measured growth inhibition of O=[C-]c1ccccc1[C-]=O.[Pd+2].c1ccc([PH+](c2ccccc2)c2ccccc2)cc1.c1ccc([PH+](c2ccccc2)c2ccccc2)cc1 : 35

The measured growth inhibition associated with O=[N+]([O-])c1ccc(C(Br)Br)cc1 reads 99.6

# molecule C=CCN1CCC23c4c5ccc(O)c4OC2C(=NN=C2CCC4(O)C6Cc7ccc(O)c8c7C4(CCN6CC=C)C2O8)CCC3(O)C1C5 (stereo not drawn) ; its growth inhibition = 2.5

Data point: O=[N+]([O-])/C=C\c1ccccc1 ; growth inhibition = 95.2

Recorded values, source PubChem BioAssay (NCI).
